system: biotinyl-Leu-oxazolone; assay: self-aminoacylation, catalytic enhancement (BLO) (fold over background); higher = more active; k-Seq, kA / k0A0; sequences stand for … in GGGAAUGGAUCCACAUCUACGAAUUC…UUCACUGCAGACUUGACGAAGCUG
This sample holds only a part of the variants without activity.
Listing: self-aminoacylation of selected sequences

In [3]: df
Out[3]:
                     macromolecule_sequence  measured_value
0  AUUCACCUAGGACAUUGGGUG [Fam2.2 aminoacylation ribozyme variant]               4
1  AAUCACCUAGGUCAUCGAGUG [Fam2.2 aminoacylation ribozyme variant]            4.65
2  CUACUUCAAAUAAUCGGUCCG [Fam1A.1 aminoacylation ribozyme variant]           0.654

Request: Given the sequence CUGCUUCAAACAUUCGGUCUG [Fam1A.1 aminoacylation ribozyme variant] , what is its reported self-aminoacylation?
Result: 1.25

Request: Try CUACUUCUAACAAUCGGUCCG [Fam1A.1 aminoacylation ribozyme variant] next.
Result: 0.799
